The values you see were collected from patent US20250242041A1.

# Measured on: T1, human αvβ6 on 293F:huβ6 cells (human, UniProt P06756 31-1048; P18564 22-788)
# T1 chain 1: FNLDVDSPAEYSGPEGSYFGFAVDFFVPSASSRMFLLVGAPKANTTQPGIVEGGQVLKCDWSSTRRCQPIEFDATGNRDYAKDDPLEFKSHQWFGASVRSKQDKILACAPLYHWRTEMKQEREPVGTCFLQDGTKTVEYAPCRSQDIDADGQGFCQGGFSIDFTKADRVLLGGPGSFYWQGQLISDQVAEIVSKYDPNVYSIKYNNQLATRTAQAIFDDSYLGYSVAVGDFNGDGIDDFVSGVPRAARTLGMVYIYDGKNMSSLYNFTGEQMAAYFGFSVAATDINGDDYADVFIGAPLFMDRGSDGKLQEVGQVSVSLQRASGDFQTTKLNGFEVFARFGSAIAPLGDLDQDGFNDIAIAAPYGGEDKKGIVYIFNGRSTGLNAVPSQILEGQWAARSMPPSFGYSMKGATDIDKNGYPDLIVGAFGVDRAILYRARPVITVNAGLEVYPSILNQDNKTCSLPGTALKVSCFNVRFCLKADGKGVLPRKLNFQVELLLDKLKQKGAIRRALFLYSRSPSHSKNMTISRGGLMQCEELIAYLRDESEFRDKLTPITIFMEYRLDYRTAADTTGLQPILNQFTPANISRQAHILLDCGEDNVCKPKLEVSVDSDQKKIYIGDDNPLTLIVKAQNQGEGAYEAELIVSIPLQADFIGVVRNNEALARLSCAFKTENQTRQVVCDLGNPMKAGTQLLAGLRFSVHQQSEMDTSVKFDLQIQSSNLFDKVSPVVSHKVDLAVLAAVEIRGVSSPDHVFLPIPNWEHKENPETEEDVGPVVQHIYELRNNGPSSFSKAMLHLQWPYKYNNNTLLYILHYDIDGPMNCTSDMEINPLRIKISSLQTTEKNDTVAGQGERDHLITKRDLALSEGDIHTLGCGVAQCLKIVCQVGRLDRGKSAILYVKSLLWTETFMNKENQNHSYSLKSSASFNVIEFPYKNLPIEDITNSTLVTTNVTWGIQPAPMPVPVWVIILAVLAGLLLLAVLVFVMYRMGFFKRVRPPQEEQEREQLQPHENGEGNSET
# T1 chain 2: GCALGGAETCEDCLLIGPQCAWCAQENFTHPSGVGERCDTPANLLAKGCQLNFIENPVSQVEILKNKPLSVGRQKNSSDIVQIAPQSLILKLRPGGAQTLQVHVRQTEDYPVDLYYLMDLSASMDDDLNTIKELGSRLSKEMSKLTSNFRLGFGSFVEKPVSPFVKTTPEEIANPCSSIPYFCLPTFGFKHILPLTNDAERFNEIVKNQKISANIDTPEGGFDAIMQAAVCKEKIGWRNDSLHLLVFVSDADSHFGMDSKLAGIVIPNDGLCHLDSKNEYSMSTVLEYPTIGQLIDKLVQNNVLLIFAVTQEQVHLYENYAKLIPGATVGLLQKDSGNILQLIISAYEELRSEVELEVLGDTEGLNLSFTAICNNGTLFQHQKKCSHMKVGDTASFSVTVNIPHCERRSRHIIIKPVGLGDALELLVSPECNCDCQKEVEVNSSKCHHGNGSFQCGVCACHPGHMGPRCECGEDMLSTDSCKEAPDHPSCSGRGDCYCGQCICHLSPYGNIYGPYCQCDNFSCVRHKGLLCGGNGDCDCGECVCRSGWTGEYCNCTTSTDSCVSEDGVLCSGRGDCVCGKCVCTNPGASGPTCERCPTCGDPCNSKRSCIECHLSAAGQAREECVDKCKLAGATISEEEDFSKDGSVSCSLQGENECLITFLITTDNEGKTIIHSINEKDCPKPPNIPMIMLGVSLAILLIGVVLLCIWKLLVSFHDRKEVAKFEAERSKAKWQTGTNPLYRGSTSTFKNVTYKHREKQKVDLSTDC
# Protocol details: competition binding on 293F cells; 2nM m2A2-AF647 competitor
Readout type: EC50
Answer format: value, then unit.

response.value for h2A2 HALG (antibody, V domains shown) VH: QFQLVQSGAEVKKPGASVKVSCKASGYSFTDYNVNWVRQAPGQGLEWMGVINPKYGTTRYNQKFKGRVTMTRDTSTSTVYMELSSLRSEDTAVYYCTRGLNAWDYWGQGTLVTVSS VL: DIQMTQSPSSLSASVGDRVTITCGASENIYGALNWYQQKPGKAPKLLIYGATNLEDGVPSRFSGSGSGRDYTFTISSLQPEDIATYYCQNVLTTPYTFGQGTKLEIKR (field: EC50) = 1 nM
